Biological target: T1, monkey TIM-3 extracellular domain protein with hFc tag (cTIM-3-hFc) (monkey)
T1 construct: not shown: human IgG Fc fragment (hFc) of the pCpC vector
T1 chain: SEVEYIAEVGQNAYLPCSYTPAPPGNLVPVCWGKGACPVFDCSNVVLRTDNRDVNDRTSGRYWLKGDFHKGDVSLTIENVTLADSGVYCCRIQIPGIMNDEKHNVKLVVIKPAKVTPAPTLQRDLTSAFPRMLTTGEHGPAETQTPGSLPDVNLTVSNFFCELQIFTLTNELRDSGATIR
Experiment: ELISA, coated monkey TIM-3 ECD protein, 0.6667 nM antibody
For each record, check the reported OD450: if it is below 3 write condition met, else write condition not met.

{"binder": "34B6D8 fully human TIM-3 antibody (human IgG4, kappa) (antibody, V domains shown) VH: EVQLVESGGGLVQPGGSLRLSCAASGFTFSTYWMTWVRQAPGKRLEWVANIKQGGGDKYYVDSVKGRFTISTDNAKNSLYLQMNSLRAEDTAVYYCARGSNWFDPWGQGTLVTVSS VL: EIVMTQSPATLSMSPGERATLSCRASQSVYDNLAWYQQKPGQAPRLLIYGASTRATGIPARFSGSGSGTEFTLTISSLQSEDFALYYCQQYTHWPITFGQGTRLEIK", "discreteLabel": "condition not met"}
{"binder": "18D2H2 fully human TIM-3 antibody (human IgG4, kappa) (antibody, V domains shown) VH: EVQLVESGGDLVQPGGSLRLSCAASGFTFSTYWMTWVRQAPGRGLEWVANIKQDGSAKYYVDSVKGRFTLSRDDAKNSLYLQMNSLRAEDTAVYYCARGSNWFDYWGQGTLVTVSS VL: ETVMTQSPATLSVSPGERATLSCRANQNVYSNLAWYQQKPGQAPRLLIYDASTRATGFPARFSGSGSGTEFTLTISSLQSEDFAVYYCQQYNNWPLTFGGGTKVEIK", "discreteLabel": "condition not met"}
{"binder": "7A4F10 fully human TIM-3 antibody (human IgG4, kappa) (antibody, V domains shown) VH: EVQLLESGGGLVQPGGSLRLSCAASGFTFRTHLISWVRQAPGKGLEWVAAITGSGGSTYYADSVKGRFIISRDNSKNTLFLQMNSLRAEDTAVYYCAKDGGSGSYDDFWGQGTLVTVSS VL: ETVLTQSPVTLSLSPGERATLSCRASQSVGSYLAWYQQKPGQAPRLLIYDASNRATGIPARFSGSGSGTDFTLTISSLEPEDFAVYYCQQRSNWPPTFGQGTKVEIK", "discreteLabel": "condition met"}
{"binder": "57F4E5 fully human TIM-3 antibody (human IgG4, kappa) (antibody, V domains shown) VH: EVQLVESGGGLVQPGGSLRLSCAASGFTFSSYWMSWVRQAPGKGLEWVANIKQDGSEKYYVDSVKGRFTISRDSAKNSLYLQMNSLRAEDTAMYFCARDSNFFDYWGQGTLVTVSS VL: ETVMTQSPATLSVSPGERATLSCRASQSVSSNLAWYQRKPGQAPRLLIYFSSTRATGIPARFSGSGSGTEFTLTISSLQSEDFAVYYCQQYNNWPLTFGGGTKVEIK", "discreteLabel": "condition not met"}
{"binder": "134H3G6 fully human TIM-3 antibody (human IgG4, kappa) (antibody, V domains shown) VH: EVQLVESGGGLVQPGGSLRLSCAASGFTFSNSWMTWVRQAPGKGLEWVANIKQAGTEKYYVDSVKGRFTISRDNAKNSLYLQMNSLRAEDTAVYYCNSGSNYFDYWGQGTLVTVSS VL: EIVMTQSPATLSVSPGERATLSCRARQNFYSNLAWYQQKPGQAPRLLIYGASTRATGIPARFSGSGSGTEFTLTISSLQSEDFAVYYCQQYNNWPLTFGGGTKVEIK", "discreteLabel": "condition not met"}

Query binder follows.
## Task Threshold test, OD450 < 3: 39E5H1 fully human TIM-3 antibody (human IgG4, kappa) (antibody, V domains shown) VH: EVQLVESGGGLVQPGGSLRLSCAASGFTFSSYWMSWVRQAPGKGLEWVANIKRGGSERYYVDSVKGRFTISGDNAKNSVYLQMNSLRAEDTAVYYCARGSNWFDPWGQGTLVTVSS VL: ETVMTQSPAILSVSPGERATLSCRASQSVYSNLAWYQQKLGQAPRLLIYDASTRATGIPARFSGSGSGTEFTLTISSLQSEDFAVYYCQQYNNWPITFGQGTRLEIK
## Result condition not met
